- Tested on: wheat germ agglutinin (Triticum aestivum), Alexa647-labelled
- PROTOCOL TEXT: wheat germ agglutinin binders on compound microarrays, profiling panel, artefact control for SMM control-protein annotation, biochemical, small-molecule microarray, 635/667 nm fluorescence (AID 1140);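 further: score merges 667 nm feature emission with signal to noise over triplicate slides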
- SETUP CONDITIONS: WGA-A647 binding, 635 nm fluorescence, higher = more signal
The entries below come with measured composite z-score values attached.
Form field (numeric): enter value without unit.

For orientation, consider the following solved cases.
C[N+](C)(C)CCCCCCNC(=O)[C@@H]1C[C@@H]2C(=O)N3CCC[C@H]3C(=O)N2[C@@H]1c1cccc(OCCO)c1 = -0.122
CCc1cccc(NC(=O)O[C@H]2[C@H](OC(=O)Nc3ccc4c(c3)OCO4)[C@@H](OC(=O)Nc3ccc4c(c3)OCO4)[C@@H](OC)O[C@@H]2CO)c1 = 0.809
C=C(COC)/C(=C/C[C@H](OC(=O)c1ccncc1)c1ccc(CO)o1)c1cc(C(=O)OC)ccc1OC = 0.113
Cc1cc(C)c(-c2cc([C@H](C)ON=C3[C@H]4CCn5c(=O)n(-c6ccccc6)c(=O)n5[C@H]4[C@H](O)[C@@H]4O[C@H]34)on2)c(C)c1 = -0.0095
C[C@H](c1ccccc1)N1C(=O)[C@H]2[C@H]3[C@H](O)[C@H](O)CC(=O)[C@@H]3CC[C@H]2C1=O = 0.286

Ask: Please look up its composite z-score: CCN1C(=O)[C@H]2[C@H]3[C@H](O)[C@H](O)CC(=NOCc4ccccc4)[C@H]3CC[C@H]2C1=O
Reply: -0.077

Ask: Can you share its composite z-score? I mean this compound: COC(=O)[C@H](C)NC(=O)CCC1CC(OC(=O)NCc2cccc3ccccc23)CC2(CCCC(COC(=O)NCCc3ccc(Cl)cc3)O2)O1 (stereo not given in full)
Reply: 0.411

Ask: State the recorded composite z-score for this entry: [N-]=[N+]=Nc1ccccc1C[C@@]1(C(N)=O)N=C(c2ccc(OCCCO)cc2)O[C@@H]1c1ccccc1
Reply: 0.402

Ask: What value of measured composite z-score is listed for CCCCC(=C=CC[C@H](O)c1ccccc1OCCO)C[C@H](O)COCc1ccccc1 ?
Reply: -0.142

Ask: GET /values?readout=composite z-score&item= CCOC(=O)NN=C1C[C@@H](O)[C@@H](O)[C@@H]2[C@@H]3C(=O)N(C4CCCCC4)C(=O)[C@@H]3CC[C@@H]12
Reply: 0.0034

Ask: Which composite z-score is reported for this compound? CC(C)CON=C1C[C@@H](O)[C@@H](O)[C@@H]2[C@@H]3C(=O)N(Cc4ccccc4)C(=O)[C@@H]3CC[C@@H]12
Reply: 0.0615

Ask: Consider the compound shown here: CCc1cc2c(nc1CC)CCN(CCC(C)=NOC[C@@H](O)COCc1ccco1)C2 What is its recorded composite z-score?
Reply: 0.182

Entry source: PubChem BioAssay
